// compounds with pKi on rat mGlu2 receptor (Rattus norvegicus, UniProt P31421), multi-source literature
pKi: −log10 of the molar value.
The label depends only on pKi: MET if it is at least 8, NOT MET if it is smaller.

cpd.smiles: Cc1cc(F)ccc1-c1ccc2c(c1)NC(=O)CC(c1cccc(-n3ccnc3)c1)=N2
label.value: NOT MET
--
cpd.smiles: NS(=O)(=O)c1cnc(-c2cn(-c3cc(-c4ccc(C(F)(F)F)cc4)cc(C(F)(F)F)n3)cn2)s1
label.value: NOT MET
--
cpd.smiles: O=C1CC(c2cccc(-n3cnnn3)c2)=Nc2ccc(C#Cc3ccc(F)cc3)cc2N1
label.value: NOT MET
--
cpd.smiles: O=C1CC(c2cccc(-n3ccnc3)c2)=Nc2cc(N3CCC(OCCO)CC3)c(-c3ccc(F)cc3)cc2N1
label.value: NOT MET
--
cpd.smiles: CCn1c(C(O)(C2CCCCC2)C2CCCCC2)nc(-c2ccncc2)c1-c1ccc(Cl)cc1
label.value: NOT MET
--
cpd.smiles: NS(=O)(=O)c1cccc(-c2cccc(-c3cc(-c4ccc(C(F)(F)F)cc4)cc(C(F)(F)F)n3)c2)c1
label.value: MET
--
cpd.smiles: FC(F)(F)c1ccc(-c2cc(C(F)(F)F)nc(-n3cnc(-c4ccncc4)n3)n2)cc1
label.value: NOT MET
--
cpd.smiles: CCOc1cc2c(cc1C(F)(F)F)NC(=O)CC(c1cccc(-c3cccc(S(N)(=O)=O)c3)c1)=N2
label.value: MET
